System: P. aeruginosa (1051575)
protocol details: Potentiation of erythromycin activity (combination MIC)
Format: cell-based, Pseudomonas aeruginosa
stated conditions: erythromycin 2 μg/mL; concentration of compound required to restore antibiotic activity
endpoint: MIC P. aeruginosa (1051575) compound + erythromycin (µg/mL)

>>> reading("CC(C)NC(=O)CC[C@@H](C)[C@H]1CCC2C3C(CC[C@@]21C)[C@@]1(C)CC[C@H](NCCCNCCCCNCCCN)CC1C[C@@H]3O (stereo partly drawn)")
32
>>> reading("CC(C)NC(=O)CC[C@@H](C)[C@H]1CCC2C3C(CC[C@@]21C)[C@@]1(C)CC[C@H](NCCN(CCN)CCN)CC1C[C@H]3O (stereo partly drawn)")
28

---

Tested on: P. aeruginosa (1051575)
protocol details: Potentiation of erythromycin activity (combination MIC)
Type: cell-based, Pseudomonas aeruginosa
stated conditions: erythromycin 2 μg/mL; concentration of compound required to restore antibiotic activity
Measured MIC P. aeruginosa (1051575) compound + erythromycin of individual entries
endpoint: MIC P. aeruginosa (1051575) compound + erythromycin (µg/mL)

>>> reading("C[C@H](CCC(=O)NC1CCCCC1)[C@H]1CCC2C3C(CC[C@@]21C)[C@@]1(C)CC[C@H](NCCCNCCCCNCCCN)CC1C[C@H]3O (some centres unmarked) [(51)]")
8
>>> reading("CC(C)NC(=O)CC[C@@H](C)[C@H]1CCC2C3C(CC[C@@]21C)[C@@]1(C)CC[C@H](NCCCNCCCN)CC1C[C@H]3O (some centres unmarked) [(8)]")
27
>>> reading("CC(C)NC(=O)CC[C@@H](C)[C@H]1CCC2C3CCC4C[C@@H](NCCCN(CCCN)CCCN)CC[C@]4(C)C3C[C@H](O)[C@@]21C (some centres unmarked) [(42)]")
8
>>> reading("CC(C)NC(=O)CC[C@@H](C)[C@H]1CCC2C3C(C[C@H](O)[C@@]21C)[C@@]1(C)CC[C@H](NCCNCCNCCNCCNCCN)CC1C[C@H]3O (some centres unmarked) [(21)]")
30
>>> reading("CC(C)NC(=O)CC[C@@H](C)[C@H]1CCC2C3C(CC[C@@]21C)[C@@]1(C)CC[C@H](NCCCNCCCN)CC1C[C@@H]3O (some centres unmarked) [(15)]")
55

---

Below, each entry is listed with its recorded MIC P. aeruginosa (1051575) compound + erythromycin.
Test system: P. aeruginosa (1051575)
protocol details: Potentiation of erythromycin activity (combination MIC)
Format: cell-based, Pseudomonas aeruginosa
stated conditions: erythromycin 2 μg/mL; concentration of compound required to restore antibiotic activity
endpoint: MIC P. aeruginosa (1051575) compound + erythromycin (µg/mL)

>>> reading("CC(C)N(C(=O)CC[C@@H](C)[C@H]1CCC2C3C(CC[C@@]21C)[C@@]1(C)CC[C@H](NCCCNCCCCNCCCN)CC1C[C@H]3O)C(C)C (stereo partly drawn)")
4
>>> reading("CC(C)NC(=O)CC[C@@H](C)[C@H]1CCC2C3C(C[C@H](O)[C@@]21C)[C@@]1(C)CC[C@H](NCCCN(CCCN)CCCN)CC1C[C@H]3O (stereo partly drawn)")
30
>>> reading("CC(C)NC(=O)CC[C@@H](C)[C@H]1CCC2C3CCC4C[C@@H](NCCCN(C)CCCN)CC[C@]4(C)C3C[C@H](O)[C@@]21C (stereo partly drawn)")
28
>>> reading("CC(C)NC(=O)CC[C@@H](C)[C@H]1CCC2C3C(CC[C@@]21C)[C@@]1(C)CC[C@H](NCCCNCCCNCCCN)CC1C[C@H]3O (stereo partly drawn)")
15
>>> reading("CC(C)NC(=O)CC[C@@H](C)[C@H]1CCC2C3C(CC[C@@]21C)[C@@]1(C)CC[C@H](NCCCN(C)CCCN)CC1C[C@H]3O (stereo partly drawn)")
28
>>> reading("CC(C)NC(=O)CC[C@@H](C)[C@H]1CCC2C3CCC4C[C@@H](NCCCN(CCCN)CCCN)CC[C@]4(C)C3CC[C@@]21C (stereo partly drawn)")
30

---

Parameter MIC, tested on S. aureus Human ATCC 25923, listed per item.
endpoint: MIC (µg/mL)

>>> reading("CC(C)NC(=O)CC[C@@H](C)[C@H]1CCC2C3CCC4C[C@@H](NCCCNCCCN)CC[C@]4(C)C3C[C@H](O)[C@@]21C (stereo partly drawn)")
4
>>> reading("CC(C)NC(=O)CC[C@@H](C)[C@H]1CCC2C3C(C[C@H](O)[C@@]21C)[C@@]1(C)CC[C@H](NCCCN(CCCN)CCCN)CC1C[C@H]3O (stereo partly drawn)")
16
>>> reading("CC(C)NC(=O)CC[C@@H](C)[C@H]1CCC2C3CCC4C[C@@H](NCCNCCNCCNCCNCCN)CC[C@]4(C)C3C[C@H](O)[C@@]21C (stereo partly drawn)")
8
>>> reading("CC(C)NC(=O)CC[C@@H](C)[C@H]1CCC2C3C(CC[C@@]21C)[C@@]1(C)CC[C@H](NCCCN(CCCN)CCCN)CC1C[C@H]3O (stereo partly drawn)")
8
>>> reading("C[C@H](CCC(=O)NC1CCCCC1)[C@H]1CCC2C3C(CC[C@@]21C)[C@@]1(C)CC[C@H](NCCCNCCCN)CC1C[C@H]3O (stereo partly drawn)")
4
>>> reading("CC(C)NC(=O)CC[C@@H](C)[C@H]1CCC2C3C(CC[C@@]21C)[C@@]1(C)CC[C@H](NCCCN(C)CCCN)CC1C[C@H]3O (stereo partly drawn)")
8

---

Reported MIC, S. aureus Human ATCC 25923.
endpoint: MIC

>>> reading("CC(C)NC(=O)CC[C@@H](C)[C@H]1CCC2C3CCC4C[C@@H](NCCCNCCCCNCCCN)CC[C@]4(C)C3C[C@H](O)[C@@]21C (stereo partly drawn) [(30), 3β-spermino-N-isopropyldeoxycholamide]")
"8 µg/mL"
>>> reading("CNC(=O)CC[C@@H](C)[C@H]1CCC2C3C(CC[C@@]21C)[C@@]1(C)CC[C@H](NCCCN2CCN(CCCN)CC2)CC1C[C@H]3O (stereo partly drawn)")
"8 µg/mL"
>>> reading("CC(C)NC(=O)CC[C@@H](C)[C@H]1CCC2C3C(CC[C@@]21C)[C@@]1(C)CC[C@H](NCCCNCCCCN)CC1C[C@H]3O (stereo partly drawn)")
"7 µg/mL"
>>> reading("CC(C)NC(=O)CC[C@@H](C)[C@H]1CCC2C3CCC4C[C@@H](NCCCNCCCN)CC[C@]4(C)C3CC[C@@]21C (stereo partly drawn)")
"6 µg/mL"
>>> reading("CCN(CC)C(=O)CC[C@@H](C)[C@H]1CCC2C3C(CC[C@@]21C)[C@@]1(C)CC[C@H](NCCCN(CCCN)CCCN)CC1C[C@H]3O (stereo partly drawn)")
"2 µg/mL"
>>> reading("CC(C)N(C(=O)CC[C@@H](C)[C@H]1CCC2C3C(CC[C@@]21C)[C@@]1(C)CC[C@H](NCCCNCCNCCCN)CC1C[C@H]3O)C(C)C (stereo partly drawn)")
"4 µg/mL"
>>> reading("CC(C)NC(=O)CC[C@@H](C)[C@H]1CCC2C3C(CC[C@@]21C)[C@@]1(C)CC[C@H](NCCCN2CCN(CCCN)CC2)CC1C[C@@H]3O (stereo partly drawn)")
"60 µg/mL"
>>> reading("CC(C)NC(=O)CC[C@@H](C)[C@H]1CCC2C3C(C[C@H](O)[C@@]21C)[C@@]1(C)CC[C@H](NCCCNCCCNCCCN)CC1C[C@H]3O (stereo partly drawn) [(4), 3β-norspermino-N-isopropylcholamide]")
"8 µg/mL"
>>> reading("CC(C)NC(=O)CC[C@@H](C)[C@H]1CCC2C3CCC4C[C@@H](NCCCN(C)CCCN)CC[C@]4(C)C3CC[C@@]21C (stereo partly drawn)")
"14 µg/mL"
>>> reading("CC(C)NC(=O)CC[C@@H](C)[C@H]1CCC2C3C(CC[C@@]21C)[C@@]1(C)CC[C@H](NCCCNCCCNCCCN)CC1C[C@H]3O (stereo partly drawn)")
"4 µg/mL"
>>> reading("CC(C)NC(=O)CC[C@@H](C)[C@H]1CCC2C3C(C[C@H](O)[C@@]21C)[C@@]1(C)CC[C@H](NCCCNCCCN)CC1C[C@H]3O (stereo partly drawn) [(5), 3β-norspermidino-N-isopropylcholamide]")
"8 µg/mL"
>>> reading("CC(C)NC(=O)CC[C@@H](C)[C@H]1CCC2C3CCC4C[C@@H](NCCCN5CCN(CCCN)CC5)CC[C@]4(C)C3C[C@H](O)[C@@]21C (stereo partly drawn)")
"15 µg/mL"

---

Tested on: P. aeruginosa (1051575)
protocol details: Potentiation of doxycycline activity (combination MIC)
Format: cell-based, Pseudomonas aeruginosa
stated conditions: doxycycline at 2 μg/mL
endpoint: synergism when administered with doxycycline

>>> reading("CC(C)NC(=O)CC[C@@H](C)[C@H]1CCC2C3CCC4C[C@@H](NCCCNCCCN)CC[C@]4(C)C3C[C@H](O)[C@@]21C (stereo partly shown)")
"noteworthy synergism"
>>> reading("CC(C)NC(=O)CC[C@@H](C)[C@H]1CCC2C3CCC4C[C@@H](NCCCNCCCCNCCCN)CC[C@]4(C)C3CC[C@@]21C (stereo partly drawn) [Compound (36), 3β-spermino-N-isopropyllithocholamide]")
"noteworthy synergism"
>>> reading("CC(C)NC(=O)CC[C@@H](C)[C@H]1CCC2C3CCC4C[C@@H](NCCCN(C)CCCN)CC[C@]4(C)C3C[C@H](O)[C@@]21C (stereo partly shown)")
"noteworthy synergism"
>>> reading("CC(C)NC(=O)CC[C@@H](C)[C@H]1CCC2C3C(CC[C@@]21C)[C@@]1(C)CC[C@H](NCCCN2CCN(CCCN)CC2)CC1C[C@H]3O (stereo partly shown)")
"noteworthy synergism"
